Target: Proto-oncogene tyrosine-protein kinase Src (Homo sapiens, UniProt P12931); further: in the data inactive means no Kd found up to 30 µM
Sequence (P12931 2-536 limits assumed): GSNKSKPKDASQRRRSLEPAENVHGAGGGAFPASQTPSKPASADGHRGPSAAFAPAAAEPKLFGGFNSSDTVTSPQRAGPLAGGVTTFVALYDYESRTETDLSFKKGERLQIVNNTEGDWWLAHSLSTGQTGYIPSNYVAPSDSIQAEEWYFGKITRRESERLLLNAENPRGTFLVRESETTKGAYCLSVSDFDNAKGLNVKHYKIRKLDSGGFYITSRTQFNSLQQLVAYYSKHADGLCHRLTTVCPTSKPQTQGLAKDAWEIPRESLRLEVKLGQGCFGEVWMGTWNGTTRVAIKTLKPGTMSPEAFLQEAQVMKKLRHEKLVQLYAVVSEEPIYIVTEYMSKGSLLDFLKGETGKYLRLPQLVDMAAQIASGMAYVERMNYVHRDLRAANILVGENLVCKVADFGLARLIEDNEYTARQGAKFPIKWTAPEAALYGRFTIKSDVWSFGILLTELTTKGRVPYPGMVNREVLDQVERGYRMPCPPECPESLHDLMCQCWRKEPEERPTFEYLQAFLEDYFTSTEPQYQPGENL
Activity calls are given as the source filed them.
Select the correct class. Options are YES = active, NO = inactive and nothing else.

Solved cases (3 shown):
Challenge: Give the logged outcome of this assay for the following compound: `Cn1cc(-c2[nH]c3cc(NC(=O)[C@H](N)C4CCCCC4)cc4c3c2C=NNC4=O)cn1`
Response given: YES

Challenge: How was COc1ccc(-c2ccc3ncc4c(c3c2)n(-c2ccc(N3CCNCC3)c(C(F)(F)F)c2)c(=O)n4C)cn1 [BGT-226 FREE BASE] classified in this test?
Response given: NO

Challenge: What did this assay record as the result for Cc1ccc(C(=O)Nc2ccc(Oc3cc4cnn(C)c4cc3-c3cn[nH]c3)c(F)c2)c(=O)n1-c1ccc(F)cc1 [MERESTINIB] ?
Response given: NO

---
Challenge: In this assay, the call recorded for O=C(NOC[C@H](O)CO)c1ccc(F)c(F)c1Nc1ccc(I)cc1F [MIRDAMETINIB] was what?
Response given: NO

Challenge: Kindly provide the recorded test outcome for the following compound: CN1CCN(c2nc(C3=C(c4c[nH]c5ccccc45)C(=O)NC3=O)c3ccccc3n2)CC1 [SOTRASTAURIN]
Response given: NO

Challenge: Called result for COc1cc2c(Oc3ccc4[nH]c(C)cc4c3F)ncnc2cc1OCCCN1CCCC1 [CEDIRANIB]
Response given: NO

Challenge: Called result for COc1cc(Nc2ncc(F)c(Nc3ccc4c(n3)N(COP(=O)(O)O)C(=O)C(C)(C)O4)n2)cc(OC)c1OC [FOSTAMATINIB]
Response given: NO

Challenge: I would be grateful if you could indicate the recorded call for CCN1CCN(Cc2ccc(Nc3ncc(F)c(-c4cc(F)c5nc(C)n(C(C)C)c5c4)n3)nc2)CC1 [ABEMACICLIB] .
Response given: NO

Challenge: Short answer needed: outcome of this test for Cn1c(=O)n(-c2ccc(C(C)(C)C#N)cc2)c2c3cc(-c4cnc5ccccc5c4)ccc3ncc21 [DACTOLISIB] ?
Response given: NO

Challenge: Which outcome did this test record for the compound CCN(CCCOc1ccc2c(Nc3cc(CC(=O)Nc4cccc(F)c4)n[nH]3)ncnc2c1)CCOP(=O)(O)O [BARASERTIB] ?
Response given: NO

Challenge: What classification did O=C(O)c1ccc2c(c1)nc(Nc1cccc(Cl)c1)c1ccncc12 [SILMITASERTIB] end up with in this test?
Response given: NO

Challenge: Each compound tested received a call. Report the one for C[C@@H]1COC(Nc2ccc3ncnc(Nc4ccc(OCc5nccs5)c(Cl)c4)c3c2)=N1 [VARLITINIB] .
Response given: NO

Challenge: What is the recorded call for this compound in the test? COc1cc(F)c(F)c(Nc2ccc(I)cc2F)c1NS(=O)(=O)C1(C[C@H](O)CO)CC1 [REFAMETINIB]
Response given: NO

Challenge: Outcome logged for C#Cc1cccc(Nc2ncnc3cc4c(cc23)OCCOCCOCCO4)c1 [ICOTINIB] in this assay:
Response given: NO

Challenge: Recorded test call requested for COc1cc2nccc(Oc3ccc(NC(=O)C4(C(=O)Nc5ccc(F)cc5)CC4)cc3)c2cc1OC [CABOZANTINIB]
Response given: NO

Challenge: Hi team, can someone confirm the assay call for Cc1cc(-c2cc(OC(=O)c3ccccc3)ccc2Cl)cc2nnc(Nc3ccc(OCCN4CCCC4)cc3)nc12 [TG100-801] ?
Response given: NO

Where do the numbers come from? From ChEMBL document CHEMBL3991601.
